- TESTED_ON: recombinant human GREM1 (hGREM1-His; C-terminal 10His tagged, R&D, #5190-GR) (human) (UniProt O60565)
- Sequence (O60565 other isoform, or with tags, fused parts or gaps limits assumed, form in doubt): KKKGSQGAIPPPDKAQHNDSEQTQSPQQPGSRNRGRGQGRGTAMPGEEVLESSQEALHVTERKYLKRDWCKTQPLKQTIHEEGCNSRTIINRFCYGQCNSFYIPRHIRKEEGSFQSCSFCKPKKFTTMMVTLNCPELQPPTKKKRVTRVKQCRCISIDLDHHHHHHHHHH
- TEST_DESCRIPTION: BLI Octet, captured mAb, 100 nM GREM1 + 5 uM heparin
Listing: Binding Signal with 30 sec Association (nm) of selected binders
Value expressed in nm; do not type the unit.

Query string: Consider the binder shown here: H4H2926N (antibody, human IgG4, V domains shown) VH: EVQLVESGGGLVQTGRSLRLSCAASGFTFDDYAMNWVRQAPGKGLEWVSGISWNSGNIGYADSVKGRFTISRDNAKNSLYLQMNSLRAEDTALYYCVKYIGQQLVQDYFDYWGQGTLVTVSS VL: DIQMTQSPSSLSASVGDRVTITCQASQDITNYLNWYQQRPGKAPKLLIYDAFNLERGVPSRFSGSGYGTYFTFTISSLQPEDIAIYYCQQYDNLPLTFGGGTKVEIE What is its recorded Binding Signal with 30 sec Association (nm)?
Result string: 0.07

Query string: What do you have for H4H6243P (antibody, human IgG4, V domains shown) VH: QVQLVQSGAEVKKPGASVKVSCKVSGYTLTELSMHWVRQAPGKGLEWMGGFDPEDGETIYAQKFQDRVTMTEDTSTDTAYMELSSLRSEDTAVYYCVTDDYEILPEYPYNMDVWGQGTTVTVSS VL: DIQMTQSPSSLSASVGDRVTITCRASQSISTYLNWYQQKPGKAPKLLIYAASSLQSGVPSRFSGSGSGTDFTLTIRSLQPEDFATYYCQQSHITPFTFGPGTKVDIK ?
Result string: 0

Query string: Item: H4H2892N (antibody, human IgG4, V domains shown) VH: QVQLVESGGGVVQPGRSLRLSCAASGFTFSSYGIHWVRQAPGKGLEWVAILWYDGSNKYYADSVKGRFTISRDNSKTTLYLQMNSLRAEDTAVYYCARENYNDLNFDLWGRGTLVTVSS VL: DIQLTQSPSFLSASVGDRVTITCWASQGISSYLAWYQHKPGKAPKLLIYAASTLQSGVPSRFSGSGSGIEFTLTISSLQPEDFATYYCQQLKSYPPWTFGQGTKVEIR
Result string: 0.15

Query string: // next record H4H6260P (antibody, human IgG4, V domains shown) VH: QVQLVESGGGVVQPGRSLRLSCAASGFTFSTYGMHWVRQAPGKGLEWVAIIWYDGSNYYYADSVKGRFTISRDNSKNTLYLQMNSLRAEDTAVYYCAREDRNDVFDIWGQGTMVTVSS VL: EIVLTQSPATLSLSPGERATLSCRASQSVSSFLAWYQQKPGQAPRLLIYDSSNRATGIPARFSGSGSGTDFTLTISSLEPEDFAVYYCQQLSNWPPITFGQGTRLEIK
Result string: 0.07

Query string: Lookup H4H2783N2 (antibody, human IgG4, V domains shown) VH: EVQLLESGGGLVQPGGSLRLSCAASGFTFSSYVMNWVRQAPGKGLEWVSAISGSGGSTYYADSVKGRSTISRDNSKNTLYLQMNSLRAEDTAIYYCAKGDIAAIVFDAFDIWGQGTVVTVSS VL: DIQMTQSPSSLSASVGDRVTITCQASQDISSALNWYQHKPGKAPKLLIYDASYLETGVPSRFSGSGSGTDFTFTISSLQPEDIATYYCQQYDNLPYTFGQGTKLEIK
Result string: 0.01

Entry source: patent US20230192831A1
